- EXPERIMENTAL_SYSTEM: human CDK9/CyclinT kinase complex (Homo sapiens (Human))
- MEASUREMENT_DESCRIPTION: In Vitro CDK9/CyclinT Assay (IMAP fluorescent polarization)
- Assay type: biochemical
- SETTINGS: Table 1
- Description: In Vitro CDK9/CyclinT Assay The activity of the compounds described in the present invention can be determined by measuring the phosphorylation of a fluorescently-labeled peptide by human CDK9/CyclinT kinase complex by fluorescent polarization using a commercially available IMAP Screening Express Assay Kit (Molecular devices). Test compounds were diluted in 100% DMSO to 5 mM stock concentration, then further dilutions were made in H2O or 100% DMSO to desirable concentrations. […]
pIC50: −log10 of the molar value.
QUANTITY_MEASURED: pIC50

Before answering, review these 5 worked examples.
CNC(=O)c1cc(Nc2cc(-c3ccccc3OC)ncn2)ccc1OC ... > 6.00
COc1ccc(Nc2cc(-c3ccccc3OC)ncn2)cc1C(=O)NN ... > 7.00
CCOc1ccc(F)cc1-c1cc(Nc2ccc(OC)c(C(N)=O)c2)ncn1 ... > 6.00
COc1cc(F)ccc1-c1cc(Nc2ccc(N(C)C)c(C(N)=O)c2)ncn1 ... > 7.00
CNC(=O)Nc1cc(Nc2cc(-c3ccccc3OC)ncn2)ccc1OC ... > 6.00

// returns reported pIC50 for input CCOc1cc(F)ccc1-c1cc(Nc2ccc(OC)c(N)c2)ncn1
> 6.00

Can you share its pIC50? I mean this compound: COc1ccccc1-c1cc(Nc2cc(F)c(OC)c([N+](=O)[O-])c2)ncn1
> 5.00

I have this compound here, COc1cc(Nc2cc(-c3ccccc3OC)ncn2)ccc1O , and I need its recorded pIC50.
> 7.00

Could you share which pIC50 value was measured for CCOc1ccc(Nc2cc(-c3ccc(F)cc3OC)ncn2)cc1N ?
> 6.00

Requested field: pIC50. Item: COc1ccc(Nc2cc(-c3ccccc3OC(C)C)ncn2)cc1N
> 6.00

Return reported pIC50; argument: CCOc1ccc(Nc2cc(-c3ccccc3OC)ncn2)cc1C(N)=O
> 6.00

* * *

- Tested on: Primary T cells
- MEASUREMENT_DESCRIPTION: Cytotoxicity, viability by flow cytometry
- Format: cell-based
QUANTITY_MEASURED: TD50

CCOc1ccc(Nc2cc(-c3ccc(F)cc3OC)ncn2)cc1O ... 10 µM
COc1ccccc1-c1cc(Nc2ccc(N3CCN(C)CC3)c(CO)c2)ncn1 ... >0.5 µM

The record that follows has no TD50 shown yet.
Any idea what TD50 was measured for COc1ccccc1-c1cc(Nc2cc(F)c(OC)c(C(N)=O)c2)ncn1 ?
>2 µM

* * *

- EXPERIMENTAL_SYSTEM: human CDK9/CyclinT kinase complex (Homo sapiens (Human), UniProt P50750)
- Sequence (P50750 whole entry): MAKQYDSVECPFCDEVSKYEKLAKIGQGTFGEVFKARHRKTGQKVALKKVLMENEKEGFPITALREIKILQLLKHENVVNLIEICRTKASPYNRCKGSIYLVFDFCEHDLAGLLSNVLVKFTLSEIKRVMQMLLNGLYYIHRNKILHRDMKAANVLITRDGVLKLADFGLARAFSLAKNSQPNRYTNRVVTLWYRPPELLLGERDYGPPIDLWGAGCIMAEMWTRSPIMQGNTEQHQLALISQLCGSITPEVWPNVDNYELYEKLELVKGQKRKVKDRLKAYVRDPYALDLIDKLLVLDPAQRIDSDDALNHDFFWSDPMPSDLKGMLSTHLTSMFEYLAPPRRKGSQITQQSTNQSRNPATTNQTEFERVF
- Sequence (O60563 whole entry partner): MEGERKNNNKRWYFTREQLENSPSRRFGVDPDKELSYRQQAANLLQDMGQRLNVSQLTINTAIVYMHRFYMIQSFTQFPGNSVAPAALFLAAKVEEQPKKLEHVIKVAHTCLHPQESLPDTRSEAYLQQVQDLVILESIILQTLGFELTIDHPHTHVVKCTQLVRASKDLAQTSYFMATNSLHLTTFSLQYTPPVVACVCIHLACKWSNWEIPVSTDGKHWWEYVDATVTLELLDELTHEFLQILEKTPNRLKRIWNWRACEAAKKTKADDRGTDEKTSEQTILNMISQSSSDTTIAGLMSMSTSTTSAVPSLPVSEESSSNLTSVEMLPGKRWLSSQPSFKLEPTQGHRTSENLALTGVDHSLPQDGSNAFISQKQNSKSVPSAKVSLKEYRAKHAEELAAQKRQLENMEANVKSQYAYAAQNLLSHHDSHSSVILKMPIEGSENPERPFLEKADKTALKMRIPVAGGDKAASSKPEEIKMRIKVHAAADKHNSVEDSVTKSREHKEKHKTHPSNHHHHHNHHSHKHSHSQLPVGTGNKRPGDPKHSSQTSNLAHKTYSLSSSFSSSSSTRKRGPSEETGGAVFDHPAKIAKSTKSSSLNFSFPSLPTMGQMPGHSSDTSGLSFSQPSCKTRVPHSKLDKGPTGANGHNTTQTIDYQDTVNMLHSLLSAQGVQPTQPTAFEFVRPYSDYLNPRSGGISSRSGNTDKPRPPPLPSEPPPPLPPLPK
- MEASUREMENT_DESCRIPTION: In Vitro CDK9/CyclinT Assay (IMAP fluorescent polarization)
- Format: biochemical
IC50: recorded values

COc1ccc(Nc2cc(-c3ccccc3OC)ncn2)cc1C(N)=O ... < 100 nM

I'd like to know its IC50. The compound in question is COc1ccccc1-c1cc(Nc2ccc(Oc3ccccc3)c([N+](=O)[O-])c2)ncn1
> 10000 nM

Look up IC50 for this compound: COc1ccc(Nc2cc(-c3ccc(F)cc3OC)ncn2)cc1NC(C)=O
< 1000 nM

I would be grateful if you could share the reported IC50 for COc1ccc(Nc2cc(-c3ccccc3OC)ncn2)cc1NC(C)=O .
< 1000 nM

Requested field: IC50. Item: CCOc1ccc(Nc2cc(-c3ccccc3OC)ncn2)cc1N
< 1000 nM
